Listed below: GI50 values for each entry.
# System: ACHN
# procedure text: NCI tumour cell line growth inhibition, 48 h
Active and inactive are the calls of the source. Cut-off read from the data, not from the text of the source: active = GI50 up to about 1.1 µM and inactive = higher.

[[record]]
compound = "CN(C)c1ccc(C=C2C(=O)OC(C)(C)OC2=O)cc1Br"
tested_system = "ACHN"
reading = "> 100 µM (inactive)"

[[record]]
compound = "O=C(Nc1cccc(F)c1)c1cc2ccc(O)cc2o/c1=N\\c1cccc(F)c1"
tested_system = "ACHN"
reading = "4.88 µM (inactive)"

[[record]]
compound = "Cc1ccc(-c2cc(=O)c(=O)[nH][nH]2)cc1"
tested_system = "ACHN"
reading = "> 100 µM (inactive)"

[[record]]
compound = "C=C(C)C(=O)OC1CC2=CC(CC3(C)OC3C3OC(=O)C(=C)C13)OC2=O (stereo not given)"
tested_system = "ACHN"
reading = "5.41 µM (inactive)"


Alright, here's another compound for you.
Give the measured GI50 for `Nc1nc(Cl)c(N)c(NCC2(CO)CCCC2)n1`
> 100 µM (inactive)
